Measured viability, T/C, listed per entry for reference.
Tested on: SUM149PT spheroids with HUVEC/MSC, viability
ASSAY_METHOD_TEXT: Anticancer human tumor SUM149PT cell line growth inhibition [GQUAD];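 note: spheroids exposed to drugs for seven days before readout; percent viability relative to DMSO vehicle control taken as 100%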
RUN_CONDITIONS: second compound 1 µM; first compound 0.0316 µM; hits give low values
MEASURE: viability, T/C (%)

* COc1cc(C2c3cc4c(cc3C(OC3OC5COC(C)OC5C(O)C3O)C3COC(=O)C23)OCO4)cc(OC)c1O (stereo not drawn) + Cc1[nH]c2ccc(F)cc2c1-c1nc2c3cccnc3c3ncccc3c2[nH]1 | 97.6
* CC(C)n1c(=O)n(C)c2cnc3cc(F)c(-c4ccc(OCCCN5CCCCC5)nc4)cc3c21 + Cc1[nH]c2ccc(F)cc2c1-c1nc2c3cccnc3c3ncccc3c2[nH]1 | 94.8
* CC1COCCN1c1cc(C2(O)CC3CCC(C2)O3)c2cnn(-c3ccn[nH]3)c2n1 (stereo not drawn) + Cc1cnc(CNC(=O)c2c(=O)c3ccc(N4CCCN(C)CC4)nc3n3c2sc2ccccc23)cn1 | 21.8

---

Test system: SUM149PT spheroids with HUVEC/MSC, viability
ASSAY_METHOD_TEXT: Anticancer human tumor SUM149PT cell line growth inhibition [GQUAD];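 note: spheroids exposed to drugs for seven days before readout; percent viability relative to DMSO vehicle control taken as 100%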
RUN_CONDITIONS: second compound 0.316 µM; first compound 0.1 µM; hits give low values
Param label: returns y when viability, T/C < 90%, returns n otherwise, including exact equality.

• Cc1cccc(N(C)C(=O)C2C(O)CCN2c2nc(C)cc(C(F)(F)F)c2C#N)c1 (stereo unspecified) + Cc1[nH]c2ccc(F)cc2c1-c1nc2c3cccnc3c3ncccc3c2[nH]1 = n
• C=CC(=O)N1CCN(c2nc(=O)n(-c3c(C)ccnc3C(C)C)c3nc(-c4c(O)cccc4F)c(F)cc23)C(C)C1 (stereo unspecified) + Cc1[nH]c2ccc(F)cc2c1-c1nc2c3cccnc3c3ncccc3c2[nH]1 = n
• O=C(c1cc(Cc2n[nH]c(=O)c3ccccc23)ccc1F)N1CCN(C(=O)C2CC2)CC1 + Cc1[nH]c2ccc(F)cc2c1-c1nc2c3cccnc3c3ncccc3c2[nH]1 = n
• COc1cccc2c1C(=O)c1c(O)c3c(c(O)c1C2=O)CC(O)(C(=O)CO)CC3OC1CC(N)C(O)C(C)O1 (stereo unspecified) + CN(C)c1ccc(Nc2c3ccc(NC(=O)CCN4CCCC4)cc3nc3cc(NC(=O)CCN4CCCC4)ccc23)cc1 = y
• COc1ncnc(C2CC2)c1-c1ncc2cnn(Cc3ccc(-c4nc(C(F)(F)F)cn4C(C)C)cc3)c2n1 + Cc1cnc(CNC(=O)c2c(=O)c3ccc(N4CCCN(C)CC4)nc3n3c2sc2ccccc23)cn1 = y
• COc1ncnc(C2CC2)c1-c1ncc2cnn(Cc3ccc(-c4nc(C(F)(F)F)cn4C(C)C)cc3)c2n1 + Cc1[nH]c2ccc(F)cc2c1-c1nc2c3cccnc3c3ncccc3c2[nH]1 = n
• CCCS(=O)(=O)Nc1ccc(F)c(C(=O)c2c[nH]c3ncc(-c4ccc(Cl)cc4)cc23)c1F + Cc1[nH]c2ccc(F)cc2c1-c1nc2c3cccnc3c3ncccc3c2[nH]1 = n
• CC1COCCN1c1cc(-c2ccnn2C)c2ccnc(-c3ccn[nH]3)c2n1 (stereo unspecified) + CN(C)c1ccc(Nc2c3ccc(NC(=O)CCN4CCCC4)cc3nc3cc(NC(=O)CCN4CCCC4)ccc23)cc1 = y
• C#Cc1c(F)ccc2cc(O)cc(-c3ncc4c(N5CC6CCC(C5)N6)nc(OCC56CCCN5CC(F)C6)nc4c3F)c12 (stereo unspecified) + Cc1[nH]c2ccc(F)cc2c1-c1nc2c3cccnc3c3ncccc3c2[nH]1 = n
• C=CCn1c(=O)c2cnc(Nc3ccc(N4CCN(C)CC4)cc3)nc2n1-c1cccc(C(C)(C)O)n1 + Cc1[nH]c2ccc(F)cc2c1-c1nc2c3cccnc3c3ncccc3c2[nH]1 = y
